# ASSAY SUMMARY: Stability in hepatocytes (human)
# Format: in vitro ADME
# TEST PARAMETERS: cryopreserved human hepatocytes (suspension)
MEASUREMENT NAME: half-life at 1 µM (h)
Just the number please, in h, no unit attached.

Using the record for C[C@H](CC/C=C/C(=O)OC(C)(C)C)O[C@@H]1O[C@@H](C)[C@H](O)C[C@H]1O , report its half-life at 1 µM.
1.77

---

# ASSAY SUMMARY: Stability in hepatocytes (rat)
# Type: in vitro ADME
# TEST PARAMETERS: cryopreserved rat hepatocytes (suspension)
MEASUREMENT NAME: half-life at 1 µM (min)
Just the number please, in min, no unit attached.

Using the record for C[C@H](CC/C=C/C(=O)OC(C)(C)C)O[C@@H]1O[C@@H](C)[C@H](O)C[C@H]1O [Compound 1] , report its half-life at 1 µM.
23.1
